The measurements presented in this section are drawn from patent US20220016115A1.

Biological target: USP19 (Homo sapiens, UniProt O94966)
Sequence (O94966 whole entry): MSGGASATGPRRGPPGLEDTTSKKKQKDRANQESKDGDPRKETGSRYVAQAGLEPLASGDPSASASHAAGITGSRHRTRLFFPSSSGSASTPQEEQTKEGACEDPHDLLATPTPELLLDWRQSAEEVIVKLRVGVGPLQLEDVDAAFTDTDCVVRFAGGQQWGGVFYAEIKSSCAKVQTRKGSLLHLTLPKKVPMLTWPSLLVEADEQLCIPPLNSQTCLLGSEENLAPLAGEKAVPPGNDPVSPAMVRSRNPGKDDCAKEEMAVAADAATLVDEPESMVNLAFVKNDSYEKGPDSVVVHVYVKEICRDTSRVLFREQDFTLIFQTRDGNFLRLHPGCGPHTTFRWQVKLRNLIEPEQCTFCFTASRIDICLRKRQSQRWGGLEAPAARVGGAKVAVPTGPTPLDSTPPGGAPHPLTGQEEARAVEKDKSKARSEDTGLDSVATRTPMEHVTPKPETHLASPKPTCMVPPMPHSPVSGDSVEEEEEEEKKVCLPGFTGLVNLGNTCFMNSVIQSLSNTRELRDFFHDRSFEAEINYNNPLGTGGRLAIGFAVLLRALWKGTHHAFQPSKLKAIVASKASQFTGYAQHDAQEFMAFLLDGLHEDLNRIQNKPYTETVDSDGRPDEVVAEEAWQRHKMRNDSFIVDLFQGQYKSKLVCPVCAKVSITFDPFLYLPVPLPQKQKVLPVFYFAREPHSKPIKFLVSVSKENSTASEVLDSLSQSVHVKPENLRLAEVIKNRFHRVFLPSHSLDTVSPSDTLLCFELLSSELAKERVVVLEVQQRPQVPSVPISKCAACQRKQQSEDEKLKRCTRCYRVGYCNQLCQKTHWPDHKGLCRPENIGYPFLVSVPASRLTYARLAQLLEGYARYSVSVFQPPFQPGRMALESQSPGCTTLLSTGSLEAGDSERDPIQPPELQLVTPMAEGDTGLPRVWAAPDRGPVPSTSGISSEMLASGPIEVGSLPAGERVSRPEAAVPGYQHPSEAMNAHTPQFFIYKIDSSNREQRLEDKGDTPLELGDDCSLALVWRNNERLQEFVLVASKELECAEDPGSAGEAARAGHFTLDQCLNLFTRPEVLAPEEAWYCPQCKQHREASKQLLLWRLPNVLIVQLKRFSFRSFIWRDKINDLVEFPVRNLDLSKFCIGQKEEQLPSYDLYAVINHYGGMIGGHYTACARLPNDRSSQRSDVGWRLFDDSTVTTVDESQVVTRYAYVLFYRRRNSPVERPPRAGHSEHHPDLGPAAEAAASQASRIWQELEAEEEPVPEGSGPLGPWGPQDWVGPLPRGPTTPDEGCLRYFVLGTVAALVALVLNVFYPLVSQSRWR
pIC50: −log10 of the molar value.
Form field: pIC50 (one value per entry).
experimental-endpoint: pIC50

> print(dat)
                                   compound  experimental.result
1  C[C@H](CC1CCCCC1)C(=O)N1CC[C@@](O)(Cn2cc(C(=O)N3CCOCC3)c(-c3ccccc3)cc2=O)C2(CCCC2)C1               > 6.30
2  C[C@H](CC1CCCCC1)C(=O)N1CCC(O)(Cn2cc(C(=O)N(C)C)c(N(C)C)cc2=O)C2(CCCC2)C1 (stereo partly drawn)               > 6.30
3  C[C@H](CC1CC1)C(=O)N1CCC(O)(Cn2cc(C(=O)N(C)C)c(-c3ccccc3)cc2=O)C2(CCCC2)C1 (stereo partly drawn)               > 6.30
4  CN(C)C(=O)c1cn(C[C@]2(O)CCN(C(=O)[C@H](CO)CC(F)(F)F)CC23CCCC3)c(=O)cc1-c1ccccc1               > 6.30
5  CC(CC1CCC1)C(=O)N1CCC(O)(Cn2cc(C(=O)N3CCCCC3)c(-c3ccccc3)cc2=O)CC1 (racemic)         4.30 to 5.30
6  C[C@H](CC1CCCCC1)C(=O)N1CC[C@@](O)(Cn2cc(C(=O)N3CCNCC3)c(-c3ccccc3)cc2=O)C2(CCCC2)C1               > 6.30
